In this section, each of the molecules is paired with its reported RP-LC retention time.
- Protocol Details: gradient 5% acetonitrile 3 min, to 50% in 2 min, to 85% in 15 min, held 3 min, 100 µL/min
- Test Context: column: Zorbax Extend-C18 2.1 x 50 mm; eluents: water / acetonitrile, 0.1% formic acid
Write down the numeric answer in s and omit the unit.

Here's what some known entries look like.
Cn1cnc(S(=O)(=O)N2CCC(C(=O)N3CCCCCC3)CC2)c1 | 638
O=C(NCc1cccs1)C1CCN(c2nnc(-c3ccccc3)o2)CC1 | 769
CCN1CCN(CCNC(=O)c2cc3n(n2)CCCN(Cc2ccc(C)cc2)C3=O)CC1 | 614
OC(COc1ccc(Cl)cc1)CN1CCN(c2cccc(Cl)c2)CC1 (stereo not given) | 866
COCCCNC(=O)CCC(=O)N1CCCn2nc(-c3cn(C)c4ccccc34)cc21 | 670
Cc1cccc(Oc2cc(N3CCC(C(=O)NCCCOC(C)C)CC3)ncn2)c1C | 883

Qu. Suppose we examine the molecule `COC(=O)c1cccc(NC(=O)c2csc(-c3cn(C)c4ncccc34)n2)c1` ; what RP-LC retention time value has been reported?
Ans. 984

Qu. What does the record list as RP-LC retention time for CSc1ccc(NC(=O)NC2CCN(c3ccc(F)cc3)C2=O)cc1 (stereo not given) ?
Ans. 847

Qu. What value of measured RP-LC retention time is listed for `CC(C)c1nc(N2CCCC2=O)sc1C(=O)NCc1ccc(F)cc1` ?
Ans. 970

Qu. What measured RP-LC retention time goes with `O=C(Nc1ccccc1F)N1CCC(n2cnc3ccc(Cl)cc3c2=O)CC1` ?
Ans. 806

====

Some molecules, each annotated with its measured RP-LC retention time.
- Protocol Details: gradient 5% acetonitrile 3 min, to 50% in 2 min, to 85% in 15 min, held 3 min, 100 µL/min
- Test Context: column: Zorbax Extend-C18 2.1 x 50 mm; eluents: water / acetonitrile, 0.1% formic acid
Write the answer as a number in s, unit excluded.

O=C(Cc1cccs1)NCc1cccnc1Oc1ccccc1 | 853
Cc1ccc(CNC(=O)Cn2c(=O)c3cc(-c4cccs4)nn3c3ncccc32)cc1 | 868
COC(=O)C1(C)CCCC2(C)c3cc(OC)ccc3C(=O)C(Br)C12 (stereo not given) | 1130
CC1(C(=O)NCc2ccc(F)cc2)Cn2cnc(C(=O)NCc3ccccc3F)c2C(=O)N1C1CC1 (stereo not given) | 751

Next:
Qu. I would be grateful if you could share the reported RP-LC retention time for `COC(=O)c1cnc2nc(C)ccc2c1Nc1cc(OC)ccc1OC` .
Ans. 667

====

- Protocol Details: gradient 5% acetonitrile 3 min, to 50% in 2 min, to 85% in 15 min, held 3 min, 100 µL/min
- Test Context: column: Zorbax Extend-C18 2.1 x 50 mm; eluents: water / acetonitrile, 0.1% formic acid
Listed here are compounds together with their documented RP-LC retention time.

Qu. Need RP-LC retention time, item `COc1ccc(-c2cn3ccn(-c4ccc(F)c(Cl)c4)c(=O)c3n2)cc1OC`
Ans. 804 s

Qu. Query (compound): COc1cc(CCC(=O)N2CC(c3noc(C4CCCN4C)n3)C2)on1 (stereo not given) ; field requested: RP-LC retention time
Ans. 570 s

Qu. Entry `CCN(CC)CCOc1ccc(Nc2ncc3cc(-c4c(Cl)cccc4Cl)c(=O)n(C)c3n2)cc1` has what RP-LC retention time?
Ans. 783 s

Qu. Param item = CCOC(=O)c1cccc(Nc2c(C(=O)N3CCCCC3C)cnc3nc(C)ccc23)c1 (stereo not given) ; retrieve measured RP-LC retention time.
Ans. 666 s

Qu. What value of measured RP-LC retention time is listed for `O=c1c(NCCc2ccncc2)nc2ccncc2n1Cc1ccccc1` ?
Ans. 553 s
